Test system: SK-MEL-5 melanoma
ASSAY_OVERVIEW: NCI tumour cell line growth inhibition, 48 h
Examples of compounds with documented TGI follow.

Here are 6 compounds together with their reported answers.
Cc1cc(-c2ccc3nc(C4CCOCC4)n(CCOC(F)(F)F)c3c2)cn(C)c1=O	1.27 µM
CCOC(=O)C1=C(C)C2C=C(c3cccs3)CC(c3ccc(Cl)cc3)=C2OC1=O (stereo not given)	> 100 µM
CC1(C)CCCC2OC2CCC(C)(C)C1=O (stereo not given)	> 100 µM
O=C(/C=C\c1ccc(Cl)c(Cl)c1)c1ccc(Cl)cc1Cl	30.8 µM
OC(c1nc2ccccc2[nH]1)C(O)C(O)C(O)c1nc2ccccc2[nH]1 (stereo not given)	> 100 µM
COc1cc2c3c(n(C)c(=O)c2cc1OC)-c1cc2c(cc1/C3=C\CCCN)OCO2	13.8 µM

Qu. Report TGI for O=c1[nH]c(Nc2nc3ccccc3[nH]2)nc(O)c1-c1ccccc1 please.
Ans. > 100 µM

Qu. # query: TGI of entry O=C(CC(C(=O)c1ccsc1)c1ccc2c(c1)OCO2)c1ccccc1 (stereo not given)
Ans. > 100 µM

Qu. I have this compound here, N#Cc1c(-c2ccccc2)/c(=C\Nc2ccc(F)cc2)c(=O)n2c1nc1ccccc12 , and I need its recorded TGI.
Ans. > 100 µM

Qu. Need TGI of COc1cc2c(c(OC)c1OC)-c1ccc(OC)c(=O)cc1C(NC(=O)c1ccc(N=[N+]=[N-])cc1)CC2 (stereo not given) , thanks.
Ans. 1.95 µM

###

System: MDA-MB-231 breast
ASSAY_OVERVIEW: NCI tumour cell line growth inhibition, 48 h; in the data active = GI50 below about 0.43 µM; inactive = the rest
Thanks in advance; please answer with one of these: t (active), f (inactive)

Solved cases below.
O=C(Nc1ccc(Cl)cc1)c1cccc(NC2=C(Cl)C(=O)N(Cc3ccccc3)C2=O)c1	f
COc1ncnc(NS(=O)(=O)c2ccc(N=C3C(=O)N(CN4CCN(c5c(F)cc6c(=O)c(C(=O)O)cn(C7CC7)c6c5OC)CC4C)c4ccc(Cl)cc43)cc2)c1OC (stereo not drawn)	f

Next up:
Qu. Could you kindly confirm the outcome this assay logged for CC(=O)[C@@]12O[C@@H]1CC1C3CCC4=CC(O)CCC4(C)C3CCC12C (stereo partly drawn) ?
Ans. f

###

Tested on: PC-3 prostate
ASSAY_OVERVIEW: NCI tumour cell line growth inhibition, 48 h; in the data active = GI50 below about 0.43 µM; inactive = the rest
Your reply should match one of these outcome classes. true (1) for active, false (0) for inactive

CO[C@H]1/C=C(/C)CCC[C@H](C)[C@H](O)[C@@H](C)C(=O)C(C)(C)[C@@H](O)CC(=O)O[C@@H]1/C(C)=C/c1csc(C)n1	true (1)
O=C1OC(O)[C@@H]2[C@H]1[C@H]1CC[C@@H]2O1 (some centres not stated)	false (0)
O=C1c2cc3c(cc2-c2c1c1ccc(F)cc1c(=O)n2CCCNCCO)OCO3	true (1)
COc1ccc(-c2nnc(COc3ccc(NC(=O)Nc4cc(C(F)(F)F)cc(C(F)(F)F)c4)cc3F)o2)cc1	false (0)
Cc1c2c(nn1-c1ccc(S(=O)(=O)/N=C3\SCCC(=O)N3c3ccccc3)cc1)-c1ccccc1CC2	false (0)
Cc1cc(I)cc(CN(C)CCCN2CCCCC2)c1O	false (0)
C=C1NC(=O)C(C(C)CC)NC(=O)C2CSCC(NC(=O)CCC(=O)O)C(=O)NC(Cc3ccccc3)C(=O)NC(C)C(=O)NC(CC(C)CC)C(=O)NC(C(=O)NC(Cc3ccccc3)C(=O)N3CCCC3C(=O)N2)C(C)OC(=O)C(CO)NC(=O)C(C(O)COC)N(C)C(=O)C(C(C)C)NC(=O)C(CC(C)CC)NC1=O (configuration not stated)	true (1)
COc1ccc(/C=C(/C#N)n2nnc3cccc(F)c32)cc1	false (0)

Qu. Record request — test call for Cc1cc2c(cc1Cl)SC(N(N(C)C)S(=O)(=O)c1ccc(Cl)cc1)=NS2(=O)=O
Ans. false (0)

Qu. // return assay outcome for Fc1cc2[nH]ncc2c2c3c(c(-c4cn[nH]c4)nc12)CCCC3
Ans. false (0)

Qu. Test call, this compound: Cc1cccc(NC(=O)Cn2cnc3sc(C(=O)OC(C)C)c(C)c3c2=O)c1
Ans. false (0)

Qu. Hi team, can someone confirm the assay call for O=C(Nc1ccc(Cl)cc1)c1cccc(NC2=C(Cl)C(=O)N(Cc3ccccc3)C2=O)c1 ?
Ans. false (0)

###

Test system: SNB-19 CNS
ASSAY_OVERVIEW: NCI tumour cell line growth inhibition, 48 h
OBSERVED_PROPERTY: TGI

Cc1cn(C2CC(O)C(CO)O2)c(=O)[nH]c1=O (stereo unspecified)	> 2850 µM
CCOC(=O)C(=C=C=C(c1ccccc1)c1ccccc1)C(=O)OCC	55.4 µM
Cc1ccc(S(=O)(=O)N/N=C/C2(c3ccccc3)c3ccccc3-c3ccccc32)cc1	73 µM
CN(C)c1nc(=Nc2ccc(N=c3nc(N(C)C)ss3)cc2)ss1	> 100 µM
OC(c1nc2ccccc2[nH]1)C(O)C(O)C(O)c1nc2ccccc2[nH]1 (stereo unspecified)	> 100 µM

Switching to the query record.
Qu. # lookup: TGI of CCOC(=O)CC(=O)ON(C)C(C)=O
Ans. > 100 µM

###

Test system: SNB-78 CNS
ASSAY_OVERVIEW: NCI tumour cell line growth inhibition, 48 h
In this section we review reported TGI values for a set of compounds.

Worked cases, answers included:
CCc1cc(Cc2cc(CC)c(NC(=O)C(=O)Cc3ccccn3)c(CC)c2Cl)c(Cl)c(CC)c1NC(=O)C(=O)Cc1ccccn1	> 100 µM
CSc1nc(NC2OCC(OC(C)=O)C(OC(C)=O)C2OC(C)=O)c(N=CC=Nc2c(NC3OCC(OC(C)=O)C(OC(C)=O)C3OC(C)=O)nc(SC)[nH]c2=O)c(=O)[nH]1 (stereo not given)	> 100 µM
COc1cc2c(c(OC)c1OC)-c1ccc(OC)c(=O)cc1C(NC(=O)c1ccc(N=[N+]=[N-])cc1)CC2 (stereo not given)	> 100 µM
CC(=O)OC1COC(n2ccc3cc(Br)c([N+](=O)[O-])cc32)C(OC(C)=O)C1OC(C)=O (stereo not given)	84.6 µM

API: the following record is the query input.
Qu. Quick one: TGI of CSc1nsc(-c2ccccc2)[s+]1 ?
Ans. > 100 µM

###

System: SNB-75 CNS
ASSAY_OVERVIEW: NCI tumour cell line growth inhibition, 48 h
OBSERVED_PROPERTY: TGI (µM)
// return numeric value only (unit: µM, not printed)

Example entries begin here.
CCOC(=O)c1c(C)nc2c3ccccc3c(C#N)c(C)n12	75.8
[Cl-].[La+3].[O-]/N=C(\c1ccccc1)c1ccccn1.[O-]/N=C(\c1ccccc1)c1ccccn1.[O-]/N=C(\c1ccccc1)c1ccccn1	82
N=Nc1c(OC(=O)Nc2cccc(Cl)c2)[nH]c2ccccc12	17.9
C#CC1(O)CCC2C3CCc4cc(Oc5nc(F)nc(-c6c7ccccc7c7sc8ccccc8n67)n5)ccc4C3CC[C@@]21C (some centres undefined)	89.3
O=C(/C=C\c1ccc(Cl)c(Cl)c1)c1ccc(Cl)cc1Cl	46.8

Qu. Look at this compound and give its reported TGI. NC1(C(=O)OCc2ccccc2)CCCC1
Ans. 35.1

Qu. Give the measured TGI of CC(=O)OC1COC(n2ccc3cc(Br)c([N+](=O)[O-])cc32)C(OC(C)=O)C1OC(C)=O (centres undefined) .
Ans. 75.2

Qu. # lookup: TGI of Cc1cc(/C=C/c2ccc3cc(N(C)C)ccc3[n+]2C)c(C)n1-c1ccccc1
Ans. 1.9

###

Test system: SN12C renal
ASSAY_OVERVIEW: NCI tumour cell line growth inhibition, 48 h
OBSERVED_PROPERTY: TGI

Some molecules with recorded TGI:
OCc1ccc(-c2ccc(-c3ccc(CO)s3)o2)s1	81 µM
CC(=N/N=C/c1ccccn1)/C(C)=N/N=C(C)/C(C)=N/N=C(C)/C(C)=N/N=C(C)/C(C)=N\N=C\c1ccccn1	> 100 µM
CC(C)[C@H]1COC(=O)N1[C@@H]1C(=O)N([C@@H](CCC(=O)N2CCN(C3CCCC3)CC2)C(=O)N[C@@H]2CCCc3ccccc32)[C@@H]1/C=C/c1cccc(Br)c1	5.51 µM
Nc1ncnc2n[nH]c(Nc3ccc(F)cc3)c12	> 100 µM
Cc1ccc(S(=O)(=O)Nc2ccccc2C(=O)c2ccc(C)c(C)c2)cc1	> 100 µM
COc1ccc(/C=C(/C#N)n2nnc3cccc(F)c32)cc1	> 100 µM

Continue with the next molecule.
Qu. Which TGI reading was recorded for the molecule Cc1ccc2c(c1)C(=O)C1(Cc3ccccc3C1=O)C2 (stereo not given) ?
Ans. > 100 µM

###

System: OVCAR-4 ovarian
ASSAY_OVERVIEW: NCI tumour cell line growth inhibition, 48 h
OBSERVED_PROPERTY: GI50

Completed entries (count: 4):
COc1cc2c3c(n(C)c(=O)c2cc1OC)-c1cc2c(cc1/C3=C\CCN)OCO2	0.792 µM
Nc1ncnc2n[nH]c(Nc3ccc(F)cc3)c12	19 µM
COc1ccc([C@H]2[C@@H](F)C(=O)N2c2cc(OC)c(OC)c(OC)c2)cc1F	0.966 µM
Cc1cc2c(cc1Cl)SC(N(N(C)C)S(=O)(=O)c1ccc(Cl)cc1)=NS2(=O)=O	23.4 µM

Qu. Bench note: what GI50 did COc1cc2c3c(n(C)c(=O)c2cc1OC)-c1cc2c(cc1/C3=C\CCCN)OCO2 show?
Ans. 17.9 µM
